Measured values drawn from patent US11535650 for this set.

# Target Desc: T1, human C5 protein (human, UniProt P01031 19-673; P01031 678-1676)
# T1 construct: Natural C5 is made from one precursor and circulates as two disulfide-linked chains; also called complement component C5; purified human C5
# Method: competitive fluorescence polarization vs probe R3076, average of two experiments
Starred links: 1 amine or outer side, 2 acyl side, 3 side chain; linkers in the order of their positions; H or OH if unused. Positions of bridges follow the written chain, without caps; N, C: chain ends. Non-standard residues stand in square brackets, D forms with d. No end group written: not given here. mXylyl = bridging moiety between residues (mXylyl(i,j)); Trp(7-aza) = N[C@@H](Cc1c[nH]c2ncccc12)C(=O)O; pXylylene = c1cc(C[*:2])ccc1C[*:1]; Phg = N[C@H](C(=O)O)c1ccccc1; Tle = CC(C)(C)[C@H](N)C(=O)O; NMeS = CN[C@@H](CO)C(=O)O; Nva = CCC[C@H](N)C(=O)O
// reported log10(IC50) per item
Measurement Type: log10(IC50) (log10 of the value in nM)

| Binder | Reading |
| --- | --- |
| MCVERFCDVYWE-NH2 (linker 2-7 via mXylyl) [R3043] | 3.63 |
| Ac-C[Phg]T[Trp(7-aza)]EY[NMeS]HC[Nva]P[Nva]-NH2 (linker 1-9 via mXylyl) [R3014] | 3.83 |
| Ac-[Nva]CYEN[Tle]Y[Trp(7-aza)]EYP[Phg]P-NH2 (SMILES CCC[C@H](NC(C)=O)C(=O)N[C@@H](CS)C(=O)N[C@@H](Cc1ccc(O)cc1)C(=O)N[C@@H](CCC(=O)O)C(=O)N[C@@H](CC(N)=O)C(=O)N[C@H](C(=O)N[C@@H](Cc1ccc(O)cc1)C(=O)N[C@@H](Cc1c[nH]c2ncccc12)C(=O)N[C@@H](CCC(=O)O)C(=O)N[C@@H](Cc1ccc(O)cc1)C(=O)N1CCC[C@H]1C(=O)N[C@H](C(=O)N1CCC[C@H]1C(N)=O)c1ccccc1)C(C)(C)C) [R3003] | 1.84 |
| Ac-[Nva]C[Phg]T[Trp(7-aza)]EY[NMeS]HC[Nva]-NH2 (linker 2-10 via pXylylene) [R3050] | 2.45 |
| Ac-[Nva]C[Phg]T[Trp(7-aza)]EY[NMeS]HC[Nva]P-NH2 (linker 2-10 via mXylyl) [R3011] | 2.44 |
